Measured values drawn from paper PMC7819943 for this set.

test_system: OsWRKY34 (Oryza sativa, UniProt Q0JBA9 1-250)
Sequence (Q0JBA9 entry or part of it): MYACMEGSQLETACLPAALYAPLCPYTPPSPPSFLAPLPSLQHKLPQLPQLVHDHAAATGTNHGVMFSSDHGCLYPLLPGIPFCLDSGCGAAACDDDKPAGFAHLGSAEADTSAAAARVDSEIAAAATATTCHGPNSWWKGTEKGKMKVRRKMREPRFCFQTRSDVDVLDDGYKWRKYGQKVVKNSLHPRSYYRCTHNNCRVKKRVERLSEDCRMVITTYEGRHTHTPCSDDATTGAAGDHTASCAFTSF
assay_protocol: protein-binding microarray (RPBM); PBS, 2% BSA, 51.3 ng/ul salmon testes DNA, 50 uM zinc acetate, 200 nM TF, 25 C, 1 h; high values mean tight binding
test_conditions: protein: recombinant; tags: N-terminal polyhistidine and DsRed monomer fusion (pET32a); label: CyDye5-dUTP incorporated in the synthesized complementary strand; 3' TTTTT single-stranded linker to array surface; dsDNA, one strand shown
The full ranking holds about 68,000 sequences; the median of “fluorescence intensity (a.u.)” is about 9,100, and the highest 2% start at about 16,000. This excerpt belongs to a sample that is enriched for the highest values.
// binding signal lookup, one value per entry

- biosequence: "AGATATACCGTTGTTGCATTTCACCTTAAAATATTTCCAACGGAGTCACCTAGTGCAG"
  binding signal: "8550 fluorescence intensity (a.u.)"
- biosequence: "GAGGGATGTCTTATATCTAGTTTTGTGGTTGGAGGATGATCGGAGTCACCTAGTGCAG"
  binding signal: "8770 fluorescence intensity (a.u.)"
- biosequence: "GCGGTGATGACAGACGGGAGAGGGAGGGTTTTTTTTGTTACGGAGTCACCTAGTGCAG"
  binding signal: "18200 fluorescence intensity (a.u.)"
- biosequence: "CGTGTTCTTGCCTGCGTATATACGGTGTACGTACACACGTCGGAGTCACCTAGTGCAG"
  binding signal: "8870 fluorescence intensity (a.u.)"
- biosequence: "GGGCTGTTATCTCTGATGTGTTTTCTGCCTCTCATGTCATCGGAGTCACCTAGTGCAG"
  binding signal: "17000 fluorescence intensity (a.u.)"
- biosequence: "TTTTTTCGGTGTTTTTCTTTTTGTTTCTTTTCGCTTCGCTCGGAGTCACCTAGTGCAG"
  binding signal: "12700 fluorescence intensity (a.u.)"
- biosequence: "ATACATTTATTCCTTCTTAGAGTCACTACTCTTCATTGAACGGAGTCACCTAGTGCAG"
  binding signal: "8060 fluorescence intensity (a.u.)"
- biosequence: "ATTGTTTTTTTTCTTTCTTTTTGCAAATCTCGCTTCGCTTCGGAGTCACCTAGTGCAG"
  binding signal: "8540 fluorescence intensity (a.u.)"
- biosequence: "ATAAATGACGCCGTTGATTTTTTCTCACATGTTTGACCATCGGAGTCACCTAGTGCAG"
  binding signal: "10500 fluorescence intensity (a.u.)"
- biosequence: "ACGCCGTTGACTTTTTTAAACATGTTTAACCGTTCATCTTCGGAGTCACCTAGTGCAG"
  binding signal: "47400 fluorescence intensity (a.u.)"
- biosequence: "TGTCTACATACGCTCAATCCATTATTCCCCTATTACATCACGGAGTCACCTAGTGCAG"
  binding signal: "9500 fluorescence intensity (a.u.)"
- biosequence: "ACAGTTTTCTCCATCTTGGCCATTCGTGTGCTATATCCATCGGAGTCACCTAGTGCAG"
  binding signal: "16500 fluorescence intensity (a.u.)"
- biosequence: "TCCTCTTCTGTTTTTCTGTTTTTTTTCGTTTCTCTTCCCTCGGAGTCACCTAGTGCAG"
  binding signal: "13300 fluorescence intensity (a.u.)"
- biosequence: "TCCTATGCCTGCAGCCTGTATCAAAAAATTTTCACAATGTCGGAGTCACCTAGTGCAG"
  binding signal: "8480 fluorescence intensity (a.u.)"
- biosequence: "CGAGGGAGAGGGGAGAGGGGAGTGCGGCGGGTGAGGCGGGCGGAGTCACCTAGTGCAG"
  binding signal: "9650 fluorescence intensity (a.u.)"
- biosequence: "ATCTTTGCCAAAATTTTTCTACTAGTATAATACTATCTCCCGGAGTCACCTAGTGCAG"
  binding signal: "8420 fluorescence intensity (a.u.)"
- biosequence: "GCTTTTCTTTGTCCATCCATCTATCTTTTTCTCCATCTTTCGGAGTCACCTAGTGCAG"
  binding signal: "8440 fluorescence intensity (a.u.)"
- biosequence: "TCTCTCCATCCATCCCTGCTGCTTCTCCATCTCGCATCTGCGGAGTCACCTAGTGCAG"
  binding signal: "16700 fluorescence intensity (a.u.)"
- biosequence: "AATAGATGACGCCGTTGATTTTTTCTCACATGTTTGACCACGGAGTCACCTAGTGCAG"
  binding signal: "11700 fluorescence intensity (a.u.)"
- biosequence: "CTCCCGTGTCCCATTTAAAACCTTCTTCTTCTTCTTCGCTCGGAGTCACCTAGTGCAG"
  binding signal: "8650 fluorescence intensity (a.u.)"
- biosequence: "TTGGGGAGGATTTTTTCTTTTCATTTCATAATTAATTTCCCGGAGTCACCTAGTGCAG"
  binding signal: "11400 fluorescence intensity (a.u.)"
- biosequence: "AGCTTAACACGCGCCACTTGCCCCTATTTAGCCGCGCCATCGGAGTCACCTAGTGCAG"
  binding signal: "9920 fluorescence intensity (a.u.)"
- biosequence: "GCTTCTCCATCTCGCATCTGCTGCCTCCTAATTTGCTTCGCGGAGTCACCTAGTGCAG"
  binding signal: "10000 fluorescence intensity (a.u.)"
- biosequence: "TGTTGATTTTTTAAAATATGTTTGACCGTTCGTCTTATTCCGGAGTCACCTAGTGCAG"
  binding signal: "10700 fluorescence intensity (a.u.)"
- biosequence: "CGTTGACTTTTTAAAATATATTTGACCGTTCGTCTTATTCCGGAGTCACCTAGTGCAG"
  binding signal: "24100 fluorescence intensity (a.u.)"
- biosequence: "ACTTAGCAGCACTTGTCCCGTTCTCCTGAAGACAGTCCAACGGAGTCACCTAGTGCAG"
  binding signal: "9480 fluorescence intensity (a.u.)"
- biosequence: "TTCTCTCTCTATCTCTCATTTATATATTTAATATATTTGTCGGAGTCACCTAGTGCAG"
  binding signal: "9250 fluorescence intensity (a.u.)"
- biosequence: "TTTTTCTTGTGCTCTATCCATCCATGCCATGCCATTCATCCGGAGTCACCTAGTGCAG"
  binding signal: "10200 fluorescence intensity (a.u.)"
- biosequence: "GGGTGTTTTCAGACGGAGAGAGGCGGCGGCGGCGGCGGGGCGGAGTCACCTAGTGCAG"
  binding signal: "18500 fluorescence intensity (a.u.)"
- biosequence: "TTTTTTTCTCCTCATTATTCTTCTTTTCTTTCTCTATATTCGGAGTCACCTAGTGCAG"
  binding signal: "9180 fluorescence intensity (a.u.)"
- biosequence: "TGTGCTTCTTTTTTTAATTTCTCTCTCTGTTTGCTTCTCTCGGAGTCACCTAGTGCAG"
  binding signal: "9720 fluorescence intensity (a.u.)"
- biosequence: "GTGGGCATGATTTTCTTCTGTTTTCTCGTTTTAATTTTTTCGGAGTCACCTAGTGCAG"
  binding signal: "20100 fluorescence intensity (a.u.)"
- biosequence: "ATCCCCGTGTTCTCCCCACACAAACCTTCGCGCCGCCCATCGGAGTCACCTAGTGCAG"
  binding signal: "9540 fluorescence intensity (a.u.)"
- biosequence: "TGCTCAACATCCATCTTTCTTTCTTTCTTTTTCTCTTTTTCGGAGTCACCTAGTGCAG"
  binding signal: "11300 fluorescence intensity (a.u.)"
- biosequence: "GGTTTCAAGAAAAGGAAAAGAAAAACTAAACGTAGTATAACGGAGTCACCTAGTGCAG"
  binding signal: "11300 fluorescence intensity (a.u.)"
- biosequence: "TCTTTTTTCTCTTCTTCTTCTCCTCCATTCCATTCCATTTCGGAGTCACCTAGTGCAG"
  binding signal: "8930 fluorescence intensity (a.u.)"
- biosequence: "TGAGAAAGAGAGAGAGAGGGAGATGGCTGGGGAGACGGGGCGGAGTCACCTAGTGCAG"
  binding signal: "9660 fluorescence intensity (a.u.)"
